Below are Ki values measured for Somatostatin receptor type 5 (Homo sapiens, UniProt P35346).
Metric Name: Ki (nM)

[P] CC(C)[C@@H]1NC(=O)[C@H](CCCCN)NC(=O)[C@@H](Cc2c[nH]c3ccccc23)NC(=O)[C@H](Cc2cccnc2)NC(=O)[C@H](NC(=O)[C@@H](N)Cc2ccc(I)cc2)CSSC[C@@H](C(=O)N[C@@H](Cc2ccc(I)cc2)C(N)=O)NC1=O
[Q] CC(C)[C@@H]1NC(=O)[C@H](CCCCN)NC(=O)[C@@H](Cc2c[nH]c3ccccc23)NC(=O)[C@H](Cc2cccnc2)NC(=O)[C@H](NC(=O)[C@@H](N)Cc2ccc(Cl)cc2)CSSC[C@@H](C(=O)N[C@@H](Cc2ccc(Cl)cc2)C(N)=O)NC1=O
Thinking about recorded Ki values, which is higher, P or Q ? Field: selected label. Fill in the label of the entry you choose.
Q
(Q: 139 nM, P: 48 nM)
